Target: T1, 4H3129-bN
T1 chain: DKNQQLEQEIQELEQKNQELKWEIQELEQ
Assay: two-hybrid library CCNG1;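 note: natural log of median RNA to DNA barcode read ratio; higher means stronger binding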
recordedMetric: interaction score
# respond with the number and nothing more

Exercise: Which interaction score value belongs to DENQQLEQENQELKQEIQELEWKIQELKQ [4H1222-bN] ?
Key: -0.201

Exercise: Consider the binder DENQQLEQKIQELKQKNQELEWEIQELEQ [4H1393-bN] and give its measured interaction score.
Key: -0.903

Exercise: Recorded interaction score of DKIAQLKQEIAELEQKNAELKWENAQLEQ [4H2619-bA] , please.
Key: -2.48

Exercise: # query: interaction score of entry DENQQLKQKIQELEQEIQELKWENQELKQ [4H1804-bN]
Key: 0.0855

Exercise: // query interaction score value for entry DENQQLKQEIQELKQENQELKWKIQELEQ [4H1629-bN]
Key: -0.732

Exercise: I am curious: what interaction score value has been reported for DENQQLEQKNQELEQKIQELKWEIQELEQ [4H1449-bN] ?
Key: -2.48

Exercise: Given DENQQLKQENQELEQKIQELKWKIQELKQ [4H1710-bN] , state its recorded interaction score.
Key: -0.785
